Cited source: ChEMBL document CHEMBL2321870

Target: Nuclear factor NF-kappa-B p105 subunit (Homo sapiens, UniProt P19838)
Assay: Inhibition of human NF-kappaB p50/DNA interaction using 32P-labeled oligonucleotides as substrate preincubated for 20 mins before substrate addition measured after 20 mins by electrophoretic mobility shift assay
Measurement label: pEC50
Please report pEC50 as the negative decimal logarithm of the molar concentration, giving only the number.

Noted for Cc1c(CCC(=O)Nc2ccccc2C(=O)O)c(=O)oc2cc3occ(C(C)(C)C)c3cc12 : its pEC50 reads 4.22

What the record says about Cc1c(CCC(=O)Nc2ccc(CC(=O)O)cc2)c(=O)oc2cc3occ(C(C)(C)C)c3cc12 : pEC50 is 4.10

Lab book: pEC50 of Cc1c(CCC(=O)Nc2ccc(C(N)=O)cc2)c(=O)oc2c(C)c3oc4c(c3cc12)CCCC4 noted as 3.15

Documented pEC50 of Cc1c(CCC(=O)Nc2ccc(C(=O)O)cc2)c(=O)oc2cc3occ(C(C)(C)C)c3cc12 : 4.22

The molecule listed as CC(=O)Nc1ccc(NC(=O)Cc2c(C)c3cc4c5c(oc4c(C)c3oc2=O)CCCC5)cc1 shows pEC50 equal to 2.52

###

Target: Nuclear factor NF-kappa-B p105 subunit (Homo sapiens)
Sequence (P19838 whole entry): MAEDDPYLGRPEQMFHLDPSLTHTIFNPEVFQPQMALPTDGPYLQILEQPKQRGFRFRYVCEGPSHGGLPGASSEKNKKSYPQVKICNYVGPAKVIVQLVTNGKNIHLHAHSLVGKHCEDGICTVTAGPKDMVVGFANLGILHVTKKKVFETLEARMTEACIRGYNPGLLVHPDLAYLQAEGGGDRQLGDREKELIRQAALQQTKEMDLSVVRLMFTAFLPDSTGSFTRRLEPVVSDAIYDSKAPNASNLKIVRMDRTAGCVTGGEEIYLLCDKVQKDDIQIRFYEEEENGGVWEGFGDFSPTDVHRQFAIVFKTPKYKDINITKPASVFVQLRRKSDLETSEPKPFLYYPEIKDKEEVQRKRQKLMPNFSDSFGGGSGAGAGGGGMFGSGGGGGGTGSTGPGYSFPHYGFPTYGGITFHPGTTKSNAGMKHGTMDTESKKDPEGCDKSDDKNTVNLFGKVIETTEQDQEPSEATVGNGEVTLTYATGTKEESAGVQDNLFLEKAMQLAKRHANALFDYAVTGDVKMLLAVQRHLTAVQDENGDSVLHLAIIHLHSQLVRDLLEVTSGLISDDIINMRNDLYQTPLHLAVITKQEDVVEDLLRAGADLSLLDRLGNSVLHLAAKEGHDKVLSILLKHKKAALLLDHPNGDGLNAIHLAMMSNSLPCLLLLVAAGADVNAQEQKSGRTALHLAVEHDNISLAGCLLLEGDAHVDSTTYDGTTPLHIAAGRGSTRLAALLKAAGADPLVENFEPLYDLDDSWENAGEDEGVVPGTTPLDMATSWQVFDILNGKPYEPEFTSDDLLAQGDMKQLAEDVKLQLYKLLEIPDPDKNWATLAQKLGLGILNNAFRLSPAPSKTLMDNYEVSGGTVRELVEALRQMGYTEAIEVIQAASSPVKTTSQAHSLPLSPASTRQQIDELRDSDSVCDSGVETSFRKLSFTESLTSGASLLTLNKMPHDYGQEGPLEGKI
Test: Inhibition of human NF-kappaB p50/DNA interaction using 32P-labeled oligonucleotides as substrate preincubated for 20 mins before substrate addition measured after 20 mins by electrophoretic mobility shift assay
Provide the recorded pEC50 for the entries that follow.
Value format note: pEC50 is -log10 of concentration (mol/L); just state the number.

Field pEC50 (entry Cc1c(CCC(=O)NCc2ccc(C(=O)O)cc2)c(=O)oc2cc3occ(C(C)(C)C)c3cc12 ) reads 3.17

Consider Cc1oc2c(C)c3oc(=O)c(CCC(=O)Nc4ccc(C(=O)O)cc4)c(C)c3cc2c1C . Its measured pEC50 is 4.22

pEC50 in this record for O=C1C=CC(=C(c2ccc(O)cc2)c2ccc(O)cc2)C=C1 : 4.30

get_value(item= Cc1c(CC(=O)NCc2ccccc2Cl)c(=O)oc2c(C)c3occ(C(C)(C)C)c3cc12 , readout=pEC50) returns 2.30

Cc1c(CCC(=O)Nc2cccc(O)c2)c(=O)oc2c(C)c3oc4c(c3cc12)CCCC4 has a reported pEC50 of 3.15

So for Cc1c(CC(=O)Nc2cccc(C(=O)O)c2)c(=O)oc2c(C)c3oc4c(c3cc12)CCCC4 , the logged pEC50 turned out to be 4.15

For this compound ( Cc1c(CC(=O)O)c(=O)oc2cc3occ(C(C)(C)C)c3cc12 ), measured pEC50 is 3.10

Summary for this compound, Cc1c(CC(=O)Nc2ccc(C(=O)O)cc2)c(=O)oc2c(C)c3occ(C(C)(C)C)c3cc12 : pEC50 is 4.22

Just so you know, measured pEC50 for O=C1C=C/C(=C(/c2ccc(O)c(O)c2)c2ccccc2S(=O)(=O)O)C=C1O came out at 4.30
